Test: recombinant UMI read abundance after kanamycin selection (control-corrected) (log10(CPM+1)); higher = more efficient recombination; extreme values may be limits of the assay; sequences stand for … in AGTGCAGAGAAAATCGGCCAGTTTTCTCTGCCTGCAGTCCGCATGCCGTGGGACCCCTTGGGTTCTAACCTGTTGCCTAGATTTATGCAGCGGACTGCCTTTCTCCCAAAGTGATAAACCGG…AGGTTGGTTTCACT; site = the 11-nt donor;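 note: IS621 bridge recombinase in Escherichia coli cells against a fixed T5 target plasmid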
Outcome measure: recombinant UMI read abundance (log10)
Could you keep your reply to the number by itself?

Worked cases, answers included:
                                        seq  assay_result
0  GGCAATCCATGGACCGGTTTTCCCGGTAATCCGTATTTGAA (site GGCGATCCTTT)             0
1  TCGTACTCATGGACCGGTTTTCCCGGTAATCCGTATTTGCA (site TCATACTCTTG)          2.44
2  GCCTATACATGGACCGGTTTTCCCGGTAATCCGTATTTGAC (site GCCTATACTGT)          2.21
3  CCCTTCTCATGGACCGGTTTTCCCGGTAATCCGTATTTGGG (site CCCCTCTCTCC)        0.0125
4  ACACAACCATGGACCGGTTTTCCCGGTAATCCGTATTTGAC (site ACACACCCTGT)             0
5  CGACCGACATGGACCGGTTTTCCCGGTAATCCGTATTTGTT (site CGAACGACTAA)        0.0187
6  GGATGCACATGGACCGGTTTTCCCGGTAATCCGTATTTGTA (site GCATGCACTTA)        0.0182
7  CGGAACCCATGGACCGGTTTTCCCGGTAATCCGTATTTGTT (site CGGAAGCCTAA)       0.00321

Problem: // returns reported recombinant UMI read abundance (log10) for input GCTATCTCATGGACCGGTTTTCCCGGTAATCCGTATTTGAA (site GCTATCTCTTT)
Solution: 1.86
